molecular target: recombinant human SK (Homo sapiens, UniProt Q9NYA1); construct: GST (glutathione-S-transferase) (N); made in house; host or cells: bacteria (pGEX bacterial expression vector); test: Recombinant human SK activity assay ([3H]sphingosine to [3H]S1P); type: biochemical; settings: Human SK incubated with 6 μg/mL of compound; percentage of SK activity inhibited
Sequence (Q9NYA1 whole entry): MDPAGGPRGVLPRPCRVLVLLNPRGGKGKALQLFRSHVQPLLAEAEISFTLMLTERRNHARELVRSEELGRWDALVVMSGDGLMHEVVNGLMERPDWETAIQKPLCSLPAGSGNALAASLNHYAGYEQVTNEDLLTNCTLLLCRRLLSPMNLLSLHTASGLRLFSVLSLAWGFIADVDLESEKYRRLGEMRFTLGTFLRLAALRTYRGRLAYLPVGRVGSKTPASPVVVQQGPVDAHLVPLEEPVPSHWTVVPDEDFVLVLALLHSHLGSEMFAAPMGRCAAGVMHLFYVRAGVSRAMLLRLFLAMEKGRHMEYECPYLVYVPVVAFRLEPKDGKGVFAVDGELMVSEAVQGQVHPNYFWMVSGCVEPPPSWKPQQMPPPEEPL
value_type: inhibition at 6 µg/mL (%)

Field: example entries. Status: answers known.
Prompt: Please look up its inhibition at 6 µg/mL: CC(C)(C)NCCCNCC12CC3CC(C1)CC(c1ccc(Cl)cc1)(C3)C2 [A84]
Response: 84

Prompt: Entry N#Cc1ccc(/C=C/C(=O)C23CC4CC(C2)CC(c2ccc(Cl)cc2)(C4)C3)cc1 [A131] : reported inhibition at 6 µg/mL = ?
Response: 41

Prompt: // lookup inhibition at 6 µg/mL for CC(NC1CCN(C)CC1)C12CC3CC(CC(C3)C1)C2 (stereo not shown) [A104]
Response: 0

Prompt: # lookup: inhibition at 6 µg/mL of CCn1c2ccccc2c2cc(NC(C)C34CC5CC(CC(c6ccc(Cl)cc6)(C5)C3)C4)ccc21 (stereo not shown) [A114]
Response: 33

Prompt: What value of inhibition at 6 µg/mL has been reported for the following compound? O=C(NCc1ccncc1)C12CC3CC(C1)CC(c1ccc(F)cc1)(C3)C2 [A61]
Response: 58

Prompt: Please look up its inhibition at 6 µg/mL: O=C(NCCc1ccc(O)c(O)c1)C12CC3CC(CC(C3)C1)C2 [A43]
Response: 0

[I] O=C(Nc1ccc(O)cc1O)C12CC3CC(C1)CC(c1ccc(Cl)cc1)(C3)C2 [A8]
[II] COc1ccc(CCNC(=O)C23CC4CC(C2)CC(c2ccc(Cl)cc2)(C4)C3)cc1Br [A42]
[III] Clc1ccc(C23CC4CC(CC(CNCc5ccncc5)(C4)C2)C3)cc1 [A88]
Prompt: Task field, ranking: reported inhibition at 6 µg/mL, descending order. Lab note: record answer as labels in requested order.
Response: I, II, III
